target: Guanylate cyclase C (GC-C) (human), P25092
Sequence (P25092 24-1073): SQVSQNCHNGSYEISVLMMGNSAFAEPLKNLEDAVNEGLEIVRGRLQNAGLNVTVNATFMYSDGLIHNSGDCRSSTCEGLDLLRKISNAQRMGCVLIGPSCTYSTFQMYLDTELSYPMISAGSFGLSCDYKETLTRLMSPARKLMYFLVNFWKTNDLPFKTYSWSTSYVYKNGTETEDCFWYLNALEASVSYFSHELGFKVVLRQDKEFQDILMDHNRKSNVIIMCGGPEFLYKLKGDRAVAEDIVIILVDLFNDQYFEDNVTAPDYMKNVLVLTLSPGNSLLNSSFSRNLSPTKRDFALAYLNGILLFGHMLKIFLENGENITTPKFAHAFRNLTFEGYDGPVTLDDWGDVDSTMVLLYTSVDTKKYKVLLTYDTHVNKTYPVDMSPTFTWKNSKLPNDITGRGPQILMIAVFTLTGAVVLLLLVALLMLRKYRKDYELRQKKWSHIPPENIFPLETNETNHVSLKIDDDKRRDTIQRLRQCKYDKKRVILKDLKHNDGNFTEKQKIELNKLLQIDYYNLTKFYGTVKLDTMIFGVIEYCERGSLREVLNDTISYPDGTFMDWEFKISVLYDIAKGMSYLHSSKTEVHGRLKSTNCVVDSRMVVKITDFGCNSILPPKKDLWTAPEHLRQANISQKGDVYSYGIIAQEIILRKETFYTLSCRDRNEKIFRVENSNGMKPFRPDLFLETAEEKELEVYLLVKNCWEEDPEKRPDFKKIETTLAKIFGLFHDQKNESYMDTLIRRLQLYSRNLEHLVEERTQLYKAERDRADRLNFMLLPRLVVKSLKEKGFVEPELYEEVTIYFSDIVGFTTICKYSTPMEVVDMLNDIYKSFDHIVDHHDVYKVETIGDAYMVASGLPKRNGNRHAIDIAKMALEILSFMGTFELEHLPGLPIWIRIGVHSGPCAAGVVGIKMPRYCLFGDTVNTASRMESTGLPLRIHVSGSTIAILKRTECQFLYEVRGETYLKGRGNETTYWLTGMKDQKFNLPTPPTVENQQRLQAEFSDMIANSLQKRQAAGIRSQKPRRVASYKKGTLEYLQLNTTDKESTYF
attributeMeasured: pKi
Answers are plain numbers, as −log10 of the molar value.

What value of pKi has been recorded for this entry: CCELCCNPACTGCY (modifications not checked) [Peptide 3]
8.92
